Assay: PAMPA permeability
Format: in vitro ADME
Settings: Lec, read-out: PAMPA Lec
REPORTED METRIC: Papp (×10⁻⁶ cm/s)
Please state the figure in ×10⁻⁶ cm/s; there is no need to write the unit.

Form field Papp, entry CCCc1nc(C)c2c(=O)[nH]c(-c3cc(S(=O)(=O)N(C)CCNC)ccc3OCC)nn12 [Compound 2] : 1.47

// Papp lookup, compound = CCCc1nc(C)c2c(=O)[nH]c(-c3cc(S(=O)(=O)NCCO)ccc3OCC)nn12 [Compound 4] , result: 0.0019

====

Consider the following compounds; for each one, report its Papp.
Experiment: PAMPA permeability
Format: in vitro ADME
Conditions: Hex, read-out: PAMPA Hex

Papp recorded for this compound, CCCc1nc(C)c2c(=O)[nH]c(-c3cc(S(=O)(=O)N(CCO)CCO)ccc3OCC)nn12 [Compound 6] , is ~0.08 ×10⁻⁶ cm/s

Kindly note the recorded Papp for CCCc1nc(C)c2c(=O)[nH]c(-c3cc(S(=O)(=O)N(C)C[C@H](COC)OC)ccc3OCC)nn12 [Compound 7] , which is 76.1 ×10⁻⁶ cm/s

Short answer for CCCc1nc(C)c2c(=O)[nH]c(-c3cc(S(=O)(=O)N4CCN(C(=O)CN(C)C)CC4)ccc3OCC)nn12 [Compound 1] : Papp was ~1.06 ×10⁻⁶ cm/s

====

Give measured half-life for each item. Keep answers brief.
Assay: T1/2 in rat liver microsomes
Assay type: in vitro ADME
Form entry: value (min) — number only.

Data point: CCCc1nc(C)c2c(=O)[nH]c(-c3cc(S(=O)(=O)N4CCN(CC(=O)N(C)C)CC4)ccc3OCC)nn12 [Compound 16] ; half-life = 59.9

get_value(item= CCCc1nc(C)c2c(=O)[nH]c(-c3cc(S(=O)(=O)N4CCN(CC(=O)NC(C)C)CC4)ccc3OCC)nn12 [Compound 18] , readout=half-life) returns 33

For CCCc1nc(C)c2c(=O)[nH]c(-c3cc(S(=O)(=O)N4CCN(C(=O)C5CCCO5)CC4)ccc3OCC)nn12 (stereo not drawn) [Compound 19] the molecule record lists half-life as 24

Looking up CCCc1nn(C)c2c(=O)[nH]c(-c3cc(S(=O)(=O)N4CCN(CCN5CCOCC5)CC4)ccc3OCC)nc12 [Compound 21] , I see its half-life listed as 34

half-life reported for this molecule CCCc1nc(C)c2c(=O)[nH]c(-c3cc(S(=O)(=O)N4CCN(CCN5CCOCC5)CC4)ccc3OCC)nn12 [Compound 15] : 34

Reported half-life for CCCc1nc(C)c2c(=O)[nH]c(-c3cc(S(=O)(=O)N(C)CC(OC)OC)ccc3OCC)nn12 [Compound 17] was 6.83

Form: molecule = CCCc1nc(C)c2c(=O)[nH]c(-c3cc(S(=O)(=O)N4CCN(C(=O)CN(C)C)CC4)ccc3OCC)nn12 [Compound 1] ; half-life = 45.4

Entry under test: CCCc1nc(C)c2c(=O)[nH]c(-c3cc(S(=O)(=O)N(CC)CCOC)ccc3OCC)nn12 [Compound 9] . Its half-life was 9.8

Kindly note the recorded half-life for CCCc1nc(C)c2c(=O)[nH]c(-c3cc(S(=O)(=O)NCCCN4CCCC4=O)ccc3OCC)nn12 [Compound 13] , which is 16.6

====

Exercise: state measured Non-Spec Binding (%) for each of the compounds provided.
Test: Non-Spec Binding
Type: in vitro ADME
Put your answer as a value accompanied by its unit after it.

// recorded Non-Spec Binding (%) for CCCc1nc(C)c2c(=O)[nH]c(-c3cc(S(=O)(=O)N(C)CC(OC)OC)ccc3OCC)nn12 [Compound 17] : 36.5%

// sample CCCc1nc(C)c2c(=O)[nH]c(-c3cc(S(=O)(=O)N(C)C)ccc3OCC)nn12 [Compound 8] , its Non-Spec Binding (%) was 44.2%

// sample CCCc1nc(C)c2c(=O)[nH]c(-c3cc(S(=O)(=O)N(C)CC(=O)N(C)OC)ccc3OCC)nn12 [Compound 14] , its Non-Spec Binding (%) was 9.9%

Briefly, Non-Spec Binding (%) measured for CCCc1nc(C)c2c(=O)[nH]c(-c3cc(S(=O)(=O)NCCCN4CCCC4=O)ccc3OCC)nn12 [Compound 13] : 5.95%

The measured Non-Spec Binding (%) associated with CCCc1nc(C)c2c(=O)[nH]c(-c3cc(S(=O)(=O)N4CCN(C(=O)C5CCCO5)CC4)ccc3OCC)nn12 (stereo not shown) [Compound 19] reads 15.5%

Query CCCc1nc(C)c2c(=O)[nH]c(-c3cc(S(=O)(=O)N(C)CCN4CCCC4=O)ccc3OCC)nn12 [Compound 20] yields Non-Spec Binding (%) of 7.4%

Given item CCCc1nc(C)c2c(=O)[nH]c(-c3cc(S(=O)(=O)N4CCN(CC(=O)N5CCOCC5)CC4)ccc3OCC)nn12 [Compound 22] , the value recorded as its Non-Spec Binding (%) is 0.8%

====

Assay: T1/2 in human liver microsomes
Type: in vitro ADME
Use 30 min as the dividing line for half-life, with the line itself on the Fulfilled side and lower values as Not fulfilled.

I'd appreciate it if you could say whether `CCCc1nc(C)c2c(=O)[nH]c(-c3cc(S(=O)(=O)N(C)CC(OC)OC)ccc3OCC)nn12` has half-life at least equal to 30 min. Not fulfilled

Given `CCCc1nc(C)c2c(=O)[nH]c(-c3cc(S(=O)(=O)N4CCN(C(=O)CN(C)C)CC4)ccc3OCC)nn12` , state whether its half-life is at least 30 min. Fulfilled

Reported half-life reaches at least 30 min for `CCCc1nn(C)c2c(=O)[nH]c(-c3cc(S(=O)(=O)N4CCN(CCN5CCOCC5)CC4)ccc3OCC)nc12` ? Fulfilled

I'd appreciate it if you could say whether CCCc1nc(C)c2c(=O)[nH]c(-c3cc(S(=O)(=O)N4CCN(C(=O)C5CCCO5)CC4)ccc3OCC)nn12 (stereo not drawn) has half-life at least equal to 30 min. Not fulfilled

# bool: half-life of `CCCc1nc(C)c2c(=O)[nH]c(-c3cc(S(=O)(=O)N4CCN(CC(=O)N(C)C)CC4)ccc3OCC)nn12` >= 30 min Fulfilled

Evaluate `CCCc1nc(C)c2c(=O)[nH]c(-c3cc(S(=O)(=O)NCCCN4CCCC4=O)ccc3OCC)nn12` : half-life at minimum 30 min? Not fulfilled

Item `CCCc1nc(C)c2c(=O)[nH]c(-c3cc(S(=O)(=O)N4CCN(CC(=O)NC(C)C)CC4)ccc3OCC)nn12` with half-life of 30 min or above? Fulfilled

Check the entry `CCCc1nc(C)c2c(=O)[nH]c(-c3cc(S(=O)(=O)N(CC)CCOC)ccc3OCC)nn12` : does half-life equal or exceed 30 min? Not fulfilled

====

Experiment: Protein Binding
Type: in vitro ADME
Details: human, human serum components
Exercise: state measured fraction unbound for each of the compounds provided.
Give only the figure.

# compound CCCc1nc(C)c2c(=O)[nH]c(-c3cc(S(=O)(=O)N(C)C[C@H](COC)OC)ccc3OCC)nn12 [Compound 7] ; its fraction unbound = 0.018

Input CCCc1nc(C)c2c(=O)[nH]c(-c3cc(S(=O)(=O)N(C)CC(=O)N(C)OC)ccc3OCC)nn12 [Compound 14] . Output fraction unbound: 0.024

Measured fraction unbound, CCCc1nc(C)c2c(=O)[nH]c(-c3cc(S(=O)(=O)N(C)CC(OC)OC)ccc3OCC)nn12 [Compound 17] : 0.016

fraction unbound recorded for this compound, CCCc1nn(C)c2c(=O)[nH]c(-c3cc(S(=O)(=O)N4CCN(CCN5CCOCC5)CC4)ccc3OCC)nc12 [Compound 21] , is 0.071

Entry CCCc1nc(C)c2c(=O)[nH]c(-c3cc(S(=O)(=O)N4CCN(CCN5CCOCC5)CC4)ccc3OCC)nn12 [Compound 15] — recorded fraction unbound = 0.155

Query CCCc1nc(C)c2c(=O)[nH]c(-c3cc(S(=O)(=O)N(C)C)ccc3OCC)nn12 [Compound 8] yields fraction unbound of 0.024

Value of measured fraction unbound for the entry CCCc1nc(C)c2c(=O)[nH]c(-c3cc(S(=O)(=O)N4CCN(C(=O)C5CCCO5)CC4)ccc3OCC)nn12 (stereo not drawn) [Compound 19] : 0.104

Looking up CCCc1nc(C)c2c(=O)[nH]c(-c3cc(S(=O)(=O)N4CCN(CC(=O)N(C)C)CC4)ccc3OCC)nn12 [Compound 16] , I see its fraction unbound listed as 0.11

The recorded fraction unbound for CCCc1nc(C)c2c(=O)[nH]c(-c3cc(S(=O)(=O)N4CCN(CC(=O)N5CCOCC5)CC4)ccc3OCC)nn12 [Compound 22] is 0.116

get_value(item= CCCc1nc(C)c2c(=O)[nH]c(-c3cc(S(=O)(=O)N(C)CC(=O)O)ccc3OCC)nn12 [Compound 12] , readout=fraction unbound) returns 0.025

Just so you know, measured fraction unbound for CCCc1nc(C)c2c(=O)[nH]c(-c3cc(S(=O)(=O)N4CCN(CC(=O)NC(C)C)CC4)ccc3OCC)nn12 [Compound 18] came out at 0.0945

For CCCc1nc(C)c2c(=O)[nH]c(-c3cc(S(=O)(=O)N(C)CCN4CCCC4=O)ccc3OCC)nn12 [Compound 20] the compound record lists fraction unbound as 0.037

// fraction unbound value for CCCc1nc(C)c2c(=O)[nH]c(-c3cc(S(=O)(=O)N(CCOCC)CCOCC)ccc3OCC)nn12 [Compound 10] : 0.012

The measured fraction unbound associated with CCCc1nc(C)c2c(=O)[nH]c(-c3cc(S(=O)(=O)N(CC)CCOC)ccc3OCC)nn12 [Compound 9] reads 0.01

Summary for this compound, CCCc1nc(C)c2c(=O)[nH]c(-c3cc(S(=O)(=O)NCCCN4CCCC4=O)ccc3OCC)nn12 [Compound 13] : fraction unbound is 0.0885
